target: pSPP (Plasmodium falciparum); experiment: FBA/pSPP co-transfected HEK 293T cell cleavage assay (Aβ ELISA, Western blot, IP/MS); format: cell-based, human; conditions: pSPP; number in parenthesis in Table 3
Sequence (Q8IKQ9 entry or part of it): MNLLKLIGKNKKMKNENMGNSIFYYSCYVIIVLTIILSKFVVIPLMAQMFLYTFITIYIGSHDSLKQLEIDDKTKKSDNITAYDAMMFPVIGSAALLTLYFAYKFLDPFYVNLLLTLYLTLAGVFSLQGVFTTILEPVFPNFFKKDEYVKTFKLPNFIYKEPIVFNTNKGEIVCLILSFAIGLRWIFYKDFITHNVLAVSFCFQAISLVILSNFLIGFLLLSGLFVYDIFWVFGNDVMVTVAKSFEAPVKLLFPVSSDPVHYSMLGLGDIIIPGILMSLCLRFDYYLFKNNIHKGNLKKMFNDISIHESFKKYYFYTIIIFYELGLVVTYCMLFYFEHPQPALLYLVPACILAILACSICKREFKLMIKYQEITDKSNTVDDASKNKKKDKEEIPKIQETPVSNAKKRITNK
Numbered stars: 1 amine (or outer) side, 2 acyl side, 3 side chain; on linkers, the order of the positions; unused ones are H or OH. Square brackets hold non-standard residues; d marks the D form. Peptide text beside a SMILES is read from it. * marks the point of attachment. X1 = CC(N[*:1])C(=O)C(F)(F)C(=O)[*:2]; Boc = CC(C)(C)OC(=O)*
measurement_type: rank order of inhibition
// keep it numeric: no unit symbol after the value

Entry under review: C[C@H](NC(=O)[C@@H](O)c1cc(F)cc(F)c1)C(=O)N[C@@H]1C(=O)N(C)c2ccccc2-c2ccccc21 . Reported rank order of inhibition?
4

Continuing:
Entry under review: CC(C)C[C@H](NC(=O)[C@H](Cc1ccccc1)C[C@@H](O)[C@H](Cc1ccccc1)NC(=O)OC(C)(C)C)C(=O)N[C@@H](Cc1ccccc1)C(N)=O . Reported rank order of inhibition?
1

Ok, now CC(C)C[C@H](NC(=O)OCc1ccccc1)C(=O)N[C@@H](CC(C)C)C(=O)NCC(=O)CNC(=O)[C@H](CC(C)C)NC(=O)[C@H](CC(C)C)NC(=O)OCc1ccccc1 [(Z-LL)2 ketone]
3

Ok, now CC[C@H](C)[C@H](NC(=O)[C@@H](NC(=O)OC(C)(C)C)C(C)C)C(=O)NC(C)C(=O)C(F)(F)C(=O)N[C@H](C(=O)N[C@H](C(=O)OC)[C@@H](C)CC)C(C)C (stereo partly shown) [GSI II] (Boc-VI[X1]VI-OMe)
2
